Entries and their OD450 nm
- systemUnderTest: T1, polypeptide GC3pep (human)
- T1 construct: also called membrane proximal polypeptide GC3pep
- T1 peptide: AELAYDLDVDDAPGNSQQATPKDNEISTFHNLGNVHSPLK
- experiment: ELISA, GC3pep coated, antibody 0.001 nM
Reply numerically in OD450 nm, unit not repeated.

Answered examples (2):
F1.111.11 (antibody, human IgG1, kappa, V domains shown, human-murine chimeric antibody) VH: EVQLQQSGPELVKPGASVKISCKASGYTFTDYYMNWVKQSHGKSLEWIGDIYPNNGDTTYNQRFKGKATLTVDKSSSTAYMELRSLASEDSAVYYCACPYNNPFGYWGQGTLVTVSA VL: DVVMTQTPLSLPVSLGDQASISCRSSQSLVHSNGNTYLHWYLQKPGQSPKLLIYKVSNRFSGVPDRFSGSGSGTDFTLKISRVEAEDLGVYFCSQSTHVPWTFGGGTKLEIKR :: 0.06
F1.21.8 (antibody, human IgG1, kappa, V domains shown, human-murine chimeric antibody) VH: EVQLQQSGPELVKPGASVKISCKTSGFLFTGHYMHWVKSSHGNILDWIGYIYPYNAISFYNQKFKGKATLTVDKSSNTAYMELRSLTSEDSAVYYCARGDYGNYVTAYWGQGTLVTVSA VL: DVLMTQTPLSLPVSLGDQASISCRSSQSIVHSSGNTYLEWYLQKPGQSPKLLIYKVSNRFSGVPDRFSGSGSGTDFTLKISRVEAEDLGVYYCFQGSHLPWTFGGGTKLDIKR :: 0.05

Attention now shifts to the item below.
IN: Determine from records and report OD450 nm for F2.23.8 (antibody, human IgG1, kappa, V domains shown, human-murine chimeric antibody) VH: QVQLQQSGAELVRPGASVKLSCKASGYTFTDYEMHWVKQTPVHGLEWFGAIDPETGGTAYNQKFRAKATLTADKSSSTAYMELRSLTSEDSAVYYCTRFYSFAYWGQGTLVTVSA VL: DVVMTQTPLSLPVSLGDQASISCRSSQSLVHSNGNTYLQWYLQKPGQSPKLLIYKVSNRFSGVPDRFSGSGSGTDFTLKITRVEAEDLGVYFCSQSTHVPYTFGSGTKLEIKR
OUT: 0.1
